Molecular target: T1, human GIP receptor (human, UniProt P48546 22-466)
T1 sequence (looked up): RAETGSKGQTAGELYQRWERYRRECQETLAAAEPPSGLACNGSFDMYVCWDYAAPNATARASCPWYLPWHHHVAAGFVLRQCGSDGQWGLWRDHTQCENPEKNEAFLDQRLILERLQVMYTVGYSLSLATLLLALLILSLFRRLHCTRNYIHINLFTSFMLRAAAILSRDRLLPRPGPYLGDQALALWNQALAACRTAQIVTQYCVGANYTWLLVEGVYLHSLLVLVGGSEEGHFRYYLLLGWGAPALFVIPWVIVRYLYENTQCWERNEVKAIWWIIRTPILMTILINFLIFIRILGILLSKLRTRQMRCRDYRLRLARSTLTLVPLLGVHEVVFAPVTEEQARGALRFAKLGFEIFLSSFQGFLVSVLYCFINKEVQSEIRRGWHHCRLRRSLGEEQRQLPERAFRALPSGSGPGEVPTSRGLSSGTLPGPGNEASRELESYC
Assay: cell-based or functional assay
*1 amine or outer side, *2 acyl side, *3 side chain or, on linkers, in order; H or OH if unused. Where no end group is shown, it is not given here. Side-chain parts run from the residue outwards. [ ]: non-standard residue; d: D form. The star is where a group is joined. C18 diacid = O=C(O)CCCCCCCCCCCCCCCCC(=O)*; C16 diacid = O=C(O)CCCCCCCCCCCCCCC(=O)*; γGlu = O=C(O)[C@H](CCC(=O)[*:2])N[*:1]; pGlu = O=C1CC[C@@H](C(=O)O)N1; AEEA = NCCOCCOCC(=O)O
A collection of binders and their measured CisBio cAMP agonism % Efficacy
Respond numerically; units are % and should not be typed.

Answered examples (2):
1. [pGlu]GTFISDYSIAMDRIK([AEEA-AEEA-γGlu-C18 diacid])QQDFVNWLLAQR-NH2 [AT381] = 5
2. [pGlu]GTFISDYSIAMDRIK([AEEA-AEEA-AEEA-γGlu-C16 diacid])QQDFVNWLLAQR-NH2 [AT380] = 8

Asked: What does the record list as CisBio cAMP agonism % Efficacy for EGTFISDYSIAMDRIK([AEEA-AEEA-AEEA-γGlu-C16 diacid])QQDFVNWLLAQR-NH2 (not fully specified (residue 1)) [AT375] ?
Given back: 6

Asked: What does the record list as CisBio cAMP agonism % Efficacy for [pGlu]GTFISDYSIAMDRIK(C16 diacid)QQDFVNWLLAQR-NH2 [AT390] ?
Given back: 4
